Target: IRAK4 (Homo sapiens)
Construct: endogenous in cells; host or cells: OCI-LY10
Assay: IRAK4 MSD Degradation in OCI-LY10
Assay type: cell-based
Conditions: OCI-LY10 cells, 4 hrs incubation, read-out: IRAK4 degradation in OCI-LY10 at 4 hrs: DC50
reported.property: DC50

{"columns": ["molecule", "reported.property", "value.observed"],
 "data": [
  ["Cn1c(=O)n(C2CCC(=O)NC2=O)c2cccc(N3CCN(C[C@H]4CC[C@H](n5cc6cc(NC(=O)c7cccc(C(F)(F)F)n7)c(C(F)F)cc6n5)CC4)CC3)c21 (stereo partly drawn)", "DC50", "< 50 nM"]
]}

Give me measured DC50, please, for this molecule: COc1cc2nn([C@H]3CC[C@H](CN4C[C@H]5C[C@@H]4CN5c4cccc5c4n(C)c(=O)n5C4CCC(=O)NC4=O)CC3)cc2cc1NC(=O)c1cccc(C(F)(F)F)n1 (stereo partly drawn) < 50 nM

Indicate its recorded DC50; the molecule in question is Cc1nc(C(=O)Nc2cc3cn([C@H]4CC[C@H](CN5CCC6(CC5)CC(CCc5cccc7c5n(C)c(=O)n7C5CCC(=O)NC5=O)C6)CC4)nc3cc2C(C)(C)O)ccc1F (stereo partly drawn) < 50 nM

====

Target: IRAK4 (Homo sapiens, UniProt Q9NWZ3)
Construct: endogenous in cells; host or cells: OCI-LY10
Assay: IRAK4 MSD Degradation in OCI-LY10
Assay type: cell-based
Settings: OCI-LY10 cells, 24 hrs incubation, read-out: IRAK4 degradation in OCI-LY10 at 24 hrs: DC50
Below is a list of entries, each paired with its recorded DC50 value.

# return recorded DC50 for entry COc1cc2nn([C@H]3CC[C@H](CN4CC5(CC(CCNc6cccc7c6C(=O)N(C6CCC(=O)NC6=O)C7=O)C5)C4)CC3)cc2cc1-n1ccc2ccccc2c1=O (stereo partly drawn) 50 to 100 nM

Please give the documented DC50 of CC(C)(O)c1cc2nn([C@H]3CC[C@H](CN4CCC5(CC4)CC(CNc4cccc6c4C(=O)N(C4CCC(=O)NC4=O)C6=O)C5)CC3)cc2cc1NC(=O)c1cccc(S(F)(F)(F)(F)F)n1 (stereo partly drawn) 50 to 100 nM

Give recorded DC50. CC(C)(O)c1cc2nn([C@H]3CC[C@H](CN4CCC5(CC4)CC(CNc4cccc6c4C(=O)N(C4CCC(=O)NC4=O)C6=O)C5)CC3)cc2cc1NC(=O)c1cccc(C(F)(F)F)n1 (stereo partly drawn) < 50 nM

====

Biological target: IRAK4 (Homo sapiens)
Construct: endogenous in cells; host or cells: OCI-LY10
Assay: IRAK4 MSD Degradation in OCI-LY10
Format: cell-based
Conditions: OCI-LY10 cells, 4 hrs incubation, read-out: IRAK4 degradation in OCI-LY10 at 4 hrs: DC50
Attribute: DC50

# count of solved cases: 4
{"columns": ["compound", "DC50"],
 "data": [
  ["Cn1c(=O)n(C2CCC(=O)NC2=O)c2cccc(C3CN(C[C@H]4CC[C@H](n5cc6cc(NC(=O)c7cccc(C(F)(F)F)n7)c(C(F)F)cc6n5)CC4)C3)c21 (some centres unmarked) [I-104]", "50 to 100 nM"],
  ["Cn1c(=O)n(C2CCC(=O)NC2=O)c2cccc([C@H]3CC[C@H](N(C)C[C@H]4CC[C@H](n5cc6cc(NC(=O)c7cccc(C(F)(F)F)n7)c(C(C)(C)O)cc6n5)CC4)CC3)c21 (single isomer, unassigned) [I-175]", "< 50 nM"],
  ["COc1cc2nn([C@H]3CC[C@H](CN4CCC(CCCc5cccc6c5n(C)c(=O)n6C5CCC(=O)NC5=O)CC4)CC3)cc2cc1NC(=O)c1cnn2cccnc12 (some centres unmarked) [I-158]", "< 50 nM"],
  ["CN(CCCC#Cc1ccc2c(c1)n(C)c(=O)n2C1CCC(=O)NC1=O)C[C@H]1CC[C@H](n2cc3cc(NC(=O)c4cccc(C(F)(F)F)n4)c(C(C)(C)O)cc3n2)CC1 (some centres unmarked) [I-67]", "< 50 nM"]
]}

Let us move to another entry and its DC50.
Query DC50 for CN(CC1CCN(c2cccc3c2C(=O)N(C2CCC(=O)NC2=O)C3=O)CC1)C[C@H]1CC[C@H](n2cc3cc(NC(=O)c4cccc(C(F)(F)F)n4)c(C(C)(C)O)cc3n2)CC1 (some centres unmarked) [I-40] 50 to 100 nM

====

Target: IRAK4 (Homo sapiens)
Construct: endogenous in cells; host or cells: OCI-LY10
Assay: IRAK4 MSD Degradation in OCI-LY10
Assay type: cell-based
Conditions: OCI-LY10 cells, 24 hrs incubation, read-out: IRAK4 degradation in OCI-LY10 at 24 hrs: DC50
reported.property: DC50

{"columns": ["molecule", "DC50"],
 "data": [
  ["COc1cc2nn([C@H]3CC[C@H](CN4CC5(CC(CCNc6cccc7c6C(=O)N([C@@H]6CCC(=O)NC6=O)C7=O)C5)C4)CC3)cc2cc1NC(=O)c1cccc(C(C)(F)F)n1 [I-254]", "< 50 nM"],
  ["CN(CCCO[C@H]1C[C@H](Nc2cccc3c2C(=O)N(C2CCC(=O)NC2=O)C3=O)C1)C[C@H]1CC[C@H](n2cc3cc(NC(=O)c4cccc(C(F)(F)F)n4)c(C(C)(C)O)cc3n2)CC1 (some centres unmarked) [I-41]", "< 50 nM"],
  ["O=C1CCC(N2C(=O)c3cccc(NCC4CC5(CCN(C[C@H]6CC[C@H](n7cc8cc(NC(=O)c9cccc(C(F)(F)F)n9)c(C(F)F)cc8n7)CC6)CC5)C4)c3C2=O)C(=O)N1 (some centres unmarked) [I-46]", "50 to 100 nM"],
  ["CN(CCCO[C@H]1C[C@H](Nc2cccc3c2C(=O)N(C2CCC(=O)NC2=O)C3=O)C1)C[C@H]1CC[C@H](n2cc3cc(NC(=O)c4coc(-c5ccnc(NCC6CC6)c5)n4)c(C(C)(C)O)cc3n2)CC1 (some centres unmarked) [I-221]", "< 50 nM"]
]}

Now look at this entry.
For the molecule COc1cc2nn([C@H]3CC[C@H](CN(C)CCCN4CCOC(CNc5cccc6c5C(=O)N(C5CCC(=O)NC5=O)C6=O)C4)CC3)cc2cc1NC(=O)c1cccc(C(C)(F)F)n1 (some centres unmarked) [I-91] , give its measured DC50 value. 50 to 100 nM

====

Biological target: IRAK4 (Homo sapiens, UniProt Q9NWZ3)
Construct: endogenous in cells; host or cells: OCI-LY10
Sequence (Q9NWZ3 1-460): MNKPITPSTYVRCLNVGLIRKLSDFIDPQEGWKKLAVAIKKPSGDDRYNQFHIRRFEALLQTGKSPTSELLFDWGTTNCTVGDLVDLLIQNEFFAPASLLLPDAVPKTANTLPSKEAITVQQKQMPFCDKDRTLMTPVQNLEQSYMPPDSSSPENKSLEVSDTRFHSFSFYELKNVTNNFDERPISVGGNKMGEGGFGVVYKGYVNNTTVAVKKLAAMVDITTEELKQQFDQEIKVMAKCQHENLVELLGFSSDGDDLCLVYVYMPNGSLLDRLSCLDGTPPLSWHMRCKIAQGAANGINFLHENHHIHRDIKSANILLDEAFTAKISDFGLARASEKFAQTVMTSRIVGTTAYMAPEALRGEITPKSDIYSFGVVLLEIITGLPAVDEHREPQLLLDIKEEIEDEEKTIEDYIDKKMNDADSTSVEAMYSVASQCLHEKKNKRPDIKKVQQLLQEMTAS
Assay: IRAK4 MSD Degradation in OCI-LY10
Type: cell-based
Settings: OCI-LY10 cells, 4 hrs incubation, read-out: IRAK4 degradation in OCI-LY10 at 4 hrs: DC50
Known DC50 of a selection of molecules

Provide measured DC50 value, entry: CN(C[C@H]1CC[C@H](n2cc3cc(NC(=O)c4cccc(C(F)(F)F)n4)c(C(C)(C)O)cc3n2)CC1)c1cccc2c1n(C)c(=O)n2C1CCC(=O)NC1=O (stereo partly drawn) 500 to 1000 nM

Name the recorded DC50 of the item COc1cc2nn([C@H]3CC[C@H](CN4CCN(c5cccc6c5n(C)c(=O)n6C5CCC(=O)NC5=O)CC4)CC3)cc2cc1NC(=O)c1cccc(C(F)(F)F)n1 (stereo partly drawn) in your answer. < 50 nM

====

Target: IRAK4 (Homo sapiens, UniProt Q9NWZ3)
Construct: endogenous in cells; host or cells: OCI-LY10
Experiment: IRAK4 MSD Degradation in OCI-LY10
Format: cell-based
Settings: OCI-LY10 cells, 4 hrs incubation, read-out: IRAK4 degradation in OCI-LY10 at 4 hrs: DC50
Measured DC50 values are reported for all entries that follow.

In the examples that follow, each entry is paired with its recorded DC50.
{"columns": ["compound", "target", "DC50"],
 "data": [
  ["COc1cc2nn([C@H]3CC[C@H](C(=O)N4CCC(c5cccc6c5n(C)c(=O)n6C5CCC(=O)NC5=O)CC4)CC3)cc2cc1NC(=O)c1cccc(C(F)(F)F)n1 (stereo partly drawn) [I-295]", "IRAK4 (Homo sapiens, UniProt Q9NWZ3)", "50 to 100 nM"],
  ["Cn1c(=O)n(C2CCC(=O)NC2=O)c2cccc(CCN3CC4(CCN(C[C@H]5CC[C@H](n6cc7cc(NC(=O)c8cccc(C(F)(F)F)n8)c(C(C)(C)O)cc7n6)CC5)CC4)C3)c21 (stereo partly drawn) [I-55]", "IRAK4 (Homo sapiens, UniProt Q9NWZ3)", "< 50 nM"]
]}

Indicate the recorded DC50 value for this compound: Cc1cccc(C(=O)Nc2cc3cn([C@H]4CC[C@H](CN(C)C5CCN(Cc6cccc7c6n(C)c(=O)n7C6CCC(=O)NC6=O)CC5)CC4)nc3cc2C(C)(C)O)n1 (stereo partly drawn) [I-48] < 50 nM
